FYI, the data here is from PubChem BioAssay (NCI).

Examples of compounds with documented growth follow.
Tested on: UACC-257 melanoma
Experiment: NCI-60 one-dose screen, 48 h (100 = growth as untreated, 0 = no growth, -100 = all killed)
Conditions: 10 µM
This is part of a sample that, as a whole, favours compounds with a hit. Of some 83,000 tested, about 20% had one in any assay.
The reply should contain only the number, in %.

Look over these answered cases.
| Compound | Target Entity | growth (%) |
| --- | --- | --- |
| O=C(NCCNC(=O)c1ccc(F)cc1)Nc1ccc(-n2cc(-c3ccncc3)c(-c3ccc(Cl)c(O)c3)n2)cc1 | UACC-257 melanoma | 24.1 |
| Cc1ccc(C2=NN(c3ccc(S(C)(=O)=O)cc3)C(=O)CC2)cc1 | UACC-257 melanoma | 50.7 |
| Cc1nc2n(c(=O)c1CCN1CCC(c3noc4cc(F)ccc34)CC1)CCC[C@@H]2O | UACC-257 melanoma | 96.2 |
| COc1ccc(-c2nnc(SCC(=O)Nc3ccc(C(=O)/C=C/c4ccccc4)cc3)n2-c2ccccc2)cc1OC | UACC-257 melanoma | 72.4 |
| O=C(CSc1nccc(Nc2cccc3ccccc23)n1)c1ccc(Cl)cc1 | UACC-257 melanoma | 109 |

Summary: O=C(O)COc1c(Cl)cc([N+](=O)[O-])cc1Cl , UACC-257 melanoma, growth = 79.7

// compound Nc1ccc(CC[C@H]2CCC/C=C/[C@@H]3C[C@H](O)C[C@H]3[C@H](O)/C=C/C(=O)O2)cc1 , assay UACC-257 melanoma, growth value: 4.74

Case CC(C)c1ccc(C(C)C(=O)N(CC2=C(C(C)c3ccccn3)c3ccccc3C2)C(C)C)cc1 (stereo not drawn) , UACC-257 melanoma, growth recorded as 49.3

###

System: SNB-75 CNS
Experiment: NCI-60 one-dose screen, 48 h
Settings: 10 µM
The panel holds about 83,000 compounds, 20% with a hit somewhere; the sample as a whole holds those more often. Calls of active or inactive are those of the source. The calls were made as follows: active = growth percent below 10; inactive = the rest.
// one of active, inactive, no free text

| Molecule | Target Entity | Assigned Category |
| --- | --- | --- |
| COc1ccc(-c2cc(-c3ccccc3)nc(SCCCC(=O)NO)n2)cc1 | SNB-75 CNS | active |
| CCOC(=O)c1cc(C(=O)c2ccc(Cl)cc2)n2ccc(-c3cc[n+](CC(=O)c4ccc(OC)cc4)cc3)cc12 | SNB-75 CNS | inactive |

Prompt: Hi, do you know how O=C(CCNC(=O)c1nc(-c2ccccc2)n(-c2ccc(Cl)cc2)n1)NO came out in this test?
Response: inactive

###

Test system: U251 CNS
Test: NCI-60 one-dose screen, 48 h (100 = growth as untreated, 0 = no growth, -100 = all killed)
Conditions: 10 µM
This is part of a sample that, as a whole, favours compounds with a hit. Of some 83,000 tested, about 20% had one in any assay.
Strictly below 20% in growth: Met. Otherwise: Not met.

Worked cases, answers included:
| Compound | Assigned Category |
| --- | --- |
| CNS(=O)(=O)Oc1ccc(-c2sc3cc(OS(=O)(=O)NC)ccc3c2C(=O)c2ccc(OCCN3CCCCC3)cc2)cc1 | Not met |
| COc1ccc(C(=O)c2cc3c(OC)c(OC)c(OC)cc3[nH]2)cc1 | Not met |
| CCCN(CCC)C(=O)[C@H](CC)[C@@H]1CC[C@@H](C)[C@@H]([C@H](C)[C@@H](O)[C@@H](C)C(=O)[C@H](CC)C2O[C@]3(C=C[C@@H](O)[C@]4(CC[C@@](C)([C@H]5CC[C@](O)(CC)[C@H](C)O5)O4)O3)[C@H](C)C[C@@H]2C)O1 (stereo partly drawn) | Not met |
| COc1cc(/C=C2\CCCC3C2=Nc2ccccc2NC3c2cc(OC)c(OC)c(OC)c2)cc(OC)c1OC (stereo not drawn) | Met |
| NC1=NC(c2ccccc2)C2=C(N1)/C(=C/c1ccccc1)CCC2 (stereo not drawn) | Not met |

Prompt: Please check: growth for Cc1c2c[n+](C(C)C)ccc2c(C)c2c1[nH]c1ccccc12 , strictly under 20% or not?
Response: Met

Prompt: growth under 20%? Item: O=C(NCCNC(=O)c1ccc(F)cc1)Nc1ccc(-n2cc(-c3ccncc3)c(-c3ccc(Cl)c(O)c3)n2)cc1
Response: Met

Prompt: Would you kindly verify if growth of CCOC(=O)c1cc(C(=O)c2cc(OC)cc(OC)c2)n2ncc3ccccc3c12 is strictly less than 20%?
Response: Met

###

Measured growth of individual entries
System: OVCAR-3 ovarian
Test: NCI-60 one-dose screen, 48 h (100 = growth as untreated, 0 = no growth, -100 = all killed)
Details: 10 µM
This is part of a sample that, as a whole, favours compounds with a hit. Of some 83,000 tested, about 20% had one in any assay. Activity calls are given as the source filed them. How the source made its calls: active means growth percent below 10; inactive means the rest.

Previously resolved entries follow.
| Compound | growth |
| --- | --- |
| CC1=CC2C(C(O)CC3(C)C2CC(C)C32OCOC23COCO3)C2(C)C/C(=C/O)C(=O)C=C12 (stereo not drawn) | 10.8% (inactive) |
| CCN(CCCNc1cc2c(c(N)c1S(=O)(=O)O)C(=O)c1ccccc1C2=O)c1ccccc1 | 111% (inactive) |
| Cc1c(Cl)cccc1NC(=O)CCCl | 102% (inactive) |
| Cc1cc(Cl)ccc1Nc1nc(C(F)(F)F)ccc1C(=O)N/N=C/c1cccc(O)c1 | 35.9% (inactive) |

Lab note: compound O=S(=O)(Oc1ccc(-c2ccc3sccc3c2)cc1)c1ccc(F)cc1 tested on OVCAR-3 ovarian; recorded growth was 110% (inactive)

Tested on OVCAR-3 ovarian: COc1ccc(C(=O)c2cc3c(OC)c(OC)c(OC)cc3[nH]2)cc1 . Observed growth: 45.1% (inactive)

For CCN(CC)CCOc1ccc2c(c1O)C(=O)c1ccccc1C2=O on OVCAR-3 ovarian, measured growth was 94.7% (inactive)

Considering O=C(Nc1ccc(NS(=O)(=O)c2ccc(F)cc2)cc1)C12CC3CC(CC(C3)C1)C2 , its growth with OVCAR-3 ovarian was recorded as 98.6% (inactive)

For the compound COc1ccc(-c2cc(-c3cc(OC)ccc3OC)nc(N)c2C#N)cc1 , the measured growth on OVCAR-3 ovarian was 53.7% (inactive)

###

Tested on: NCI-H23 lung
Assay: NCI-60 one-dose screen, 48 h
Conditions: 10 µM
About 83,000 compounds went through this panel and 20% of them were active in at least one assay; those are over-represented in the sample as a whole. Active and inactive are the calls of the source. How the source made its calls: active means growth percent below 10; inactive means the rest.
// classify into true (1) = active, false (0) = inactive

Prompt: Would you mind telling me which call this test gave CCCCCCCCCCCC[n+]1c(C)cc(N)c2ccccc21 ?
Response: true (1)

Prompt: Identify the outcome logged in this assay for the compound shown: O=C(CCNC(=O)c1nc(-c2ccccc2)n(-c2ccc(Cl)cc2)n1)NO
Response: false (0)

Prompt: Which result was noted for this compound in the test: CC(=O)COc1ccc(Cl)cc1Cl
Response: false (0)

Prompt: Hey, what did the test say about CN(C)c1ccc(/C=N/NC(=O)c2ccccc2Nc2cccc(C(F)(F)F)c2)cc1 ?
Response: false (0)

Prompt: Check the results log: what was the call for CN(C)c1ncnc2c1nnn2C1OC(CO)C(O)C1O (centres undefined) ?
Response: true (1)

Prompt: Which outcome did this test record for the compound O=C1CCn2c1c(O)c1ccccc1c2=O ?
Response: false (0)

Prompt: For this compound, state the assay outcome: COc1ccc(C(=O)COc2cccc(/C=C3\Cc4ccccc4C3=O)c2)cc1
Response: false (0)

Prompt: Lab log entry: CC(C)(C)c1ccc(S(=O)(=O)N[C@H]2CC[C@H]3[C@@H]4CCc5cc(O)c([N+](=O)[O-])cc5[C@H]4CC[C@]23C)cc1 — outcome as called in the assay?
Response: false (0)

Prompt: Assay outcome for Nc1nc(-c2ccc(Cl)cc2)cc(-c2cc3ccccc3oc2=O)n1 : what was it?
Response: false (0)

Prompt: Hi, do you know how CN(C)CCOc1cccc(-c2nc3sccn3c2-c2ccnc(S(C)(=O)=O)n2)c1 came out in this test?
Response: false (0)

Prompt: Field: outcome | Entry: C[C@]12CCC3c4ccc(O)cc4C[C@@H](CCCCCCCCCS(=O)CCCC(F)(F)C(F)(F)F)C3C1CC[C@@H]2O (some centres undefined)
Response: false (0)

Prompt: Could you check what this test reported for COc1cc(-c2nn(-c3cccc(NC(=O)NCCNS(=O)(=O)c4ccc(Cl)cc4)c3)cc2-c2ccncc2)ccc1Cl ?
Response: false (0)

Prompt: Which result was noted for this compound in the test: CC(C)c1cc(N=O)cc(C(C)C)c1O
Response: false (0)

Prompt: Dear all, I need the recorded test outcome for CCOC(=O)C1C(C(=O)OCC)C2C(=O)C3C(C(=O)OCC)C(C(=O)OCC)C3C(=O)C12 (centres undefined) , thank you.
Response: false (0)
